tested on: Serine/threonine-protein kinase Nek2 (Homo sapiens)
Sequence (P51955 whole entry): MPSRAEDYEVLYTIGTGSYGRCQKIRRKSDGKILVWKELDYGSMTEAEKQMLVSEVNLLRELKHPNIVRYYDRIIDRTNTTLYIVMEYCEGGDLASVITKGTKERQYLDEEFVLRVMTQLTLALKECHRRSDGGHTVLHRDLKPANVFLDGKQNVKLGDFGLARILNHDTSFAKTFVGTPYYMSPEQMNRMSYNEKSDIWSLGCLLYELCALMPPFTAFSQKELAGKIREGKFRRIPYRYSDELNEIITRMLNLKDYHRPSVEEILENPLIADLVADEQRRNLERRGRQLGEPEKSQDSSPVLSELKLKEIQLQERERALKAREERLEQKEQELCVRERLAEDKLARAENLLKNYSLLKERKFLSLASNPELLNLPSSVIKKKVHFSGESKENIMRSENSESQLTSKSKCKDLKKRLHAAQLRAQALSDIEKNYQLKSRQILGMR
readout label: IC50 (µM)
The reply should be a number in µM, with the unit left off.

Input line: Reported IC50 for Serine/threonine-protein kinase Nek2 (Homo sapiens), given CN1C(=O)[C@@H](N2CCc3cn(Cc4ccccc4)nc3C2=O)COc2ccccc21 ?
Output line: 1

Input line: Entry CN1C(=O)[C@@H](N2CCc3cn(CC4CCS(=O)(=O)CC4)nc3C2=O)COc2ccccc21 [TP-030n] , system Serine/threonine-protein kinase Nek2 (Homo sapiens): what IC50 was measured?
Output line: 1

* * *

tested on: Tyrosine-protein kinase BTK (Homo sapiens)
Sequence (Q06187 whole entry): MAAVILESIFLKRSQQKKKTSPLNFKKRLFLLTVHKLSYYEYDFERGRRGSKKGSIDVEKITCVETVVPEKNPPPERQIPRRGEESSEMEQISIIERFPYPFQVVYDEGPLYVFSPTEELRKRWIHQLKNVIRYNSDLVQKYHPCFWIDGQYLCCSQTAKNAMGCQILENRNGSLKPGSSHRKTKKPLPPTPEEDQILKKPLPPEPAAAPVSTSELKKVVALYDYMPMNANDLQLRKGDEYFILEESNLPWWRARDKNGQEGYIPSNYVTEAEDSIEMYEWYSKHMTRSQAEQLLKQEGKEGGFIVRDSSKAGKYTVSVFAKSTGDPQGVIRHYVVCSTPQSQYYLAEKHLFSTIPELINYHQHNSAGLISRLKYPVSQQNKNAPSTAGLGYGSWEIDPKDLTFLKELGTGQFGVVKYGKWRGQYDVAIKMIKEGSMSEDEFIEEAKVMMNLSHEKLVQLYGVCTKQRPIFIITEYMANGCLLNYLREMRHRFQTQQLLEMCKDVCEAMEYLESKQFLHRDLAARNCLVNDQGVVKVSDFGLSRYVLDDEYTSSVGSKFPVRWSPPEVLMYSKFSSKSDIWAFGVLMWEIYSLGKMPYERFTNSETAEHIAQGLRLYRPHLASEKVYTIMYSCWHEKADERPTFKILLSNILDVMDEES
readout label: IC50
Show the value, then the unit it is measured in.

Input line: Entry CN1C(=O)[C@@H](N2CCc3cn(CC4CCS(=O)(=O)CC4)nc3C2=O)COc2ccccc21 [TP-030n] has what IC50?
Output line: 1000 nM

Input line: Request the reported IC50 associated with CN1C(=O)[C@@H](N2CCc3cn(Cc4ccccc4)nc3C2=O)COc2ccccc21
Output line: 1000 nM

* * *

Exercise: for every item that follows, state its recorded pIC50.
tested on: Tyrosine-protein kinase CSK (Homo sapiens, UniProt P41240)
Sequence (P41240 whole entry): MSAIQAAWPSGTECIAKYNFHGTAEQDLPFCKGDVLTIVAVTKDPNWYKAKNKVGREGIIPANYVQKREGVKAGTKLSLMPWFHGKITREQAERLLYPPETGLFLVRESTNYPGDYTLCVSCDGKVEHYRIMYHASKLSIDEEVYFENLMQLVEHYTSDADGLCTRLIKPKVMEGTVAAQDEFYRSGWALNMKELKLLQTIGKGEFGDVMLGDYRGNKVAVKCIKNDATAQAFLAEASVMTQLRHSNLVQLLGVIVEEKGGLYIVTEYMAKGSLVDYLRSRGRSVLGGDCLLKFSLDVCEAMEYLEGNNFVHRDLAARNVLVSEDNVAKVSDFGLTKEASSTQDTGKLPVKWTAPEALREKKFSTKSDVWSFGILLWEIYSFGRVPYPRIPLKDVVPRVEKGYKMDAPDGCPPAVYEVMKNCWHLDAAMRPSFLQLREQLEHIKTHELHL
assay summary: CSK(CSK1LGF1) Takeda global kinase panel
By convention, pIC50 is the negative base-10 log of a molar concentration.

Input line: API: value(readout= pIC50, system= Tyrosine-protein kinase CSK (Homo sapiens, UniProt P41240), query= CN1C(=O)[C@@H](N2CCc3cn(Cc4ccccc4)nc3C2=O)COc2ccccc21 [TP-030-1] )
Output line: 6.00

Input line: Test system Tyrosine-protein kinase CSK (Homo sapiens, UniProt P41240); read-out pIC50; what value for CN1C(=O)[C@@H](N2CCc3cn(CC4CCS(=O)(=O)CC4)nc3C2=O)COc2ccccc21 [TP-030n] ?
Output line: 6.00

* * *

Can you tell me pIC50 for the items I'm about to list?
tested on: Dual specificity tyrosine-phosphorylation-regulated kinase 4 (Homo sapiens)
Sequence (Q9NR20 whole entry): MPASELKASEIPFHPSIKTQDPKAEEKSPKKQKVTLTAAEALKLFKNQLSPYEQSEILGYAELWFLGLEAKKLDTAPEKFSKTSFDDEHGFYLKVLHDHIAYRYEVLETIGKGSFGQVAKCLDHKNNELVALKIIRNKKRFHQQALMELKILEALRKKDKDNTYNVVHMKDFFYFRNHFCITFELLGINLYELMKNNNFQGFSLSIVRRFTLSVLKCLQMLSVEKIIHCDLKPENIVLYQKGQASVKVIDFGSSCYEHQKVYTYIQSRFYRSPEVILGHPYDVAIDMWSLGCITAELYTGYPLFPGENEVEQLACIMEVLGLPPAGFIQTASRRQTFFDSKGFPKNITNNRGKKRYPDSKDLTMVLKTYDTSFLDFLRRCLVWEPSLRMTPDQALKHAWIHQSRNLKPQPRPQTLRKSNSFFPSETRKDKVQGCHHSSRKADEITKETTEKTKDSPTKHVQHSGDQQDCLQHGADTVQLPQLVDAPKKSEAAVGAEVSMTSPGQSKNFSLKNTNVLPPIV
// pIC50: -log10(molar conc.)

Input line: Field request: pIC50 | item: CN1C(=O)[C@@H](N2CCc3cn(CC4CCS(=O)(=O)CC4)nc3C2=O)COc2ccccc21 [TP-030n]
Output line: 6.00

Input line: Field request: pIC50 | item: CN1C(=O)[C@@H](N2CCc3cn(Cc4ccccc4)nc3C2=O)COc2ccccc21
Output line: 6.00

* * *

readout label: pIC50
Value format note: pIC50 is -log10 of concentration (mol/L); just state the number.

Input line: Identify the measured pIC50 of CN1C(=O)[C@@H](N2CCc3cn(Cc4ccccc4)nc3C2=O)COc2ccccc21 [TP-030-1] for Serine/threonine-protein kinase pim-2 (Homo sapiens).
Output line: 6.00

Input line: Identify the measured pIC50 of CN1C(=O)[C@@H](N2CCc3cn(CC4CCS(=O)(=O)CC4)nc3C2=O)COc2ccccc21 [TP-030n] for Serine/threonine-protein kinase pim-2 (Homo sapiens).
Output line: 6.00

* * *

tested on: Tyrosine-protein kinase ZAP-70 (Homo sapiens, UniProt P43403)
Sequence (P43403 whole entry): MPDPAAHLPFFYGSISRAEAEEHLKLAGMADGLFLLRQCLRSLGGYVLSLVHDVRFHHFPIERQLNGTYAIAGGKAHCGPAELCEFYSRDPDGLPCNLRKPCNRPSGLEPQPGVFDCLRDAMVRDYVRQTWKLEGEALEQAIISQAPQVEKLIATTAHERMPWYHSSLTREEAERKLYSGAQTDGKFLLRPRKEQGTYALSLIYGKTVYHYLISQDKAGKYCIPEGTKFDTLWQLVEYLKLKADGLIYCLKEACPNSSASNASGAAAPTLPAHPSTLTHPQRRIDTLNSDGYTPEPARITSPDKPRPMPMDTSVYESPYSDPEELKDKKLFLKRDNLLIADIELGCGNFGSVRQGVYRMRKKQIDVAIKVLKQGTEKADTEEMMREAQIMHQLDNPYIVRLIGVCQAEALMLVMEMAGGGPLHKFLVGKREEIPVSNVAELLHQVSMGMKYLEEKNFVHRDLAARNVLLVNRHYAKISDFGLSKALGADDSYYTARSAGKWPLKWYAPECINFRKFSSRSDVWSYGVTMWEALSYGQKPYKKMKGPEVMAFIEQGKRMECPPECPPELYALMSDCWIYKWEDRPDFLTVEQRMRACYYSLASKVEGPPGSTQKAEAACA
assay summary: ZAP70(ZAP7LGP1) Takeda global kinase panel
readout label: pIC50
Keep it numeric: pIC50 is minus log10 of the concentration in mol/L.

Input line: Which pIC50 is listed for CN1C(=O)[C@@H](N2CCc3cn(CC4CCS(=O)(=O)CC4)nc3C2=O)COc2ccccc21 [TP-030n] ?
Output line: 6.00

* * *

Sequence of the target: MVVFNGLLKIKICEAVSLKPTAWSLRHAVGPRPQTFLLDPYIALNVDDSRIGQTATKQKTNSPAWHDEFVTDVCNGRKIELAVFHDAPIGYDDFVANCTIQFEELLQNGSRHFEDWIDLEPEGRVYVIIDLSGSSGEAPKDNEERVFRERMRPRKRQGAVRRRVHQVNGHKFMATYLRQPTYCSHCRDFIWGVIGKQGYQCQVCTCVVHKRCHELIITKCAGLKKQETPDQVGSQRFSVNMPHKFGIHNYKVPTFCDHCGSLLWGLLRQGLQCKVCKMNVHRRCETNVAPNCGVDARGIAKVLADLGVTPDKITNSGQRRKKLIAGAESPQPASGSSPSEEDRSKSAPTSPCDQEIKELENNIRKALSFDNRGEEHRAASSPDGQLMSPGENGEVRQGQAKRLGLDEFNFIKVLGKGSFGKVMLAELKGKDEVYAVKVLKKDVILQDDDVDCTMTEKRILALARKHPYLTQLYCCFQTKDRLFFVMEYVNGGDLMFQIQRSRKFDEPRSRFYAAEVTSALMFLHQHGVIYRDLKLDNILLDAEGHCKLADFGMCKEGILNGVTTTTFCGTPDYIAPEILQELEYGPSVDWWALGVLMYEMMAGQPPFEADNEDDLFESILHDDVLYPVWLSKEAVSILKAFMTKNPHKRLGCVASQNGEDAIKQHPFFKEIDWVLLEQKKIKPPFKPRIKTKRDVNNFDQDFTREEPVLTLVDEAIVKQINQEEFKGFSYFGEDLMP
I'd be grateful if you could share measured pIC50 for these entries.
# pIC50: negative log10 of molar concentration; output just the value

Input line: Suppose we examine the compound CN1C(=O)[C@@H](N2CCc3cn(Cc4ccccc4)nc3C2=O)COc2ccccc21 ; what pIC50 value has been reported?
Output line: 6.00

Input line: Would you mind telling me what pIC50 value was observed for CN1C(=O)[C@@H](N2CCc3cn(CC4CCS(=O)(=O)CC4)nc3C2=O)COc2ccccc21 [TP-030n] ?
Output line: 6.00

* * *

Consider the following pIC50 values measured on Cyclin-dependent kinase 2 (Homo sapiens).
Reminder that pIC50 means the negative base-10 logarithm of the concentration expressed in mol/L.

Input line: What does the record list as pIC50 for CN1C(=O)[C@@H](N2CCc3cn(CC4CCS(=O)(=O)CC4)nc3C2=O)COc2ccccc21 [TP-030n] ?
Output line: 6.00

Input line: # get_value(readout='pIC50', item= CN1C(=O)[C@@H](N2CCc3cn(Cc4ccccc4)nc3C2=O)COc2ccccc21 [TP-030-1] )
Output line: 6.00

* * *

I'd be grateful if you could share measured IC50 for these entries.
Give the quantity in nM, number only.

Input line: Identify the measured IC50 of CN1C(=O)[C@@H](N2CCc3cn(Cc4ccccc4)nc3C2=O)COc2ccccc21 for Aurora kinase B (Homo sapiens, UniProt Q96GD4).
Output line: 1000

Input line: Query the reported IC50 for Aurora kinase B (Homo sapiens, UniProt Q96GD4); item: CN1C(=O)[C@@H](N2CCc3cn(CC4CCS(=O)(=O)CC4)nc3C2=O)COc2ccccc21 [TP-030n]
Output line: 1000

* * *

readout label: pIC50
Conceptually, pIC50 converts a concentration in mol/L into minus its log10.

Input line: Request body: readout pIC50, system Cyclin-dependent kinase 1 (Homo sapiens, UniProt P06493), query CN1C(=O)[C@@H](N2CCc3cn(Cc4ccccc4)nc3C2=O)COc2ccccc21 . Return the value.
Output line: 6.00

Input line: Give recorded pIC50 with Cyclin-dependent kinase 1 (Homo sapiens, UniProt P06493) for the following molecule: CN1C(=O)[C@@H](N2CCc3cn(CC4CCS(=O)(=O)CC4)nc3C2=O)COc2ccccc21 [TP-030n]
Sequence (P06493 whole entry): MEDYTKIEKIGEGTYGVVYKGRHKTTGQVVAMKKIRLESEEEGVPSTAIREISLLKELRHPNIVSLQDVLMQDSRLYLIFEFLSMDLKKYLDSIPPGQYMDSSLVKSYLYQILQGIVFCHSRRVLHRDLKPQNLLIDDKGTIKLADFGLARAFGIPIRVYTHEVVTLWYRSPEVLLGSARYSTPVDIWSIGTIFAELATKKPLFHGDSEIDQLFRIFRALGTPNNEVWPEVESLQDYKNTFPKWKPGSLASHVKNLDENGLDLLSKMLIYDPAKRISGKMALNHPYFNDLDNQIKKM
Output line: 6.00

Taken from ChEMBL document CHEMBL4507327.
